Values from patent US11174252B2

Entries and their measured pIC50 follow.
# target: PI3Kδ kinase (Homo sapiens (Human))
# Sequence (O00329 whole entry): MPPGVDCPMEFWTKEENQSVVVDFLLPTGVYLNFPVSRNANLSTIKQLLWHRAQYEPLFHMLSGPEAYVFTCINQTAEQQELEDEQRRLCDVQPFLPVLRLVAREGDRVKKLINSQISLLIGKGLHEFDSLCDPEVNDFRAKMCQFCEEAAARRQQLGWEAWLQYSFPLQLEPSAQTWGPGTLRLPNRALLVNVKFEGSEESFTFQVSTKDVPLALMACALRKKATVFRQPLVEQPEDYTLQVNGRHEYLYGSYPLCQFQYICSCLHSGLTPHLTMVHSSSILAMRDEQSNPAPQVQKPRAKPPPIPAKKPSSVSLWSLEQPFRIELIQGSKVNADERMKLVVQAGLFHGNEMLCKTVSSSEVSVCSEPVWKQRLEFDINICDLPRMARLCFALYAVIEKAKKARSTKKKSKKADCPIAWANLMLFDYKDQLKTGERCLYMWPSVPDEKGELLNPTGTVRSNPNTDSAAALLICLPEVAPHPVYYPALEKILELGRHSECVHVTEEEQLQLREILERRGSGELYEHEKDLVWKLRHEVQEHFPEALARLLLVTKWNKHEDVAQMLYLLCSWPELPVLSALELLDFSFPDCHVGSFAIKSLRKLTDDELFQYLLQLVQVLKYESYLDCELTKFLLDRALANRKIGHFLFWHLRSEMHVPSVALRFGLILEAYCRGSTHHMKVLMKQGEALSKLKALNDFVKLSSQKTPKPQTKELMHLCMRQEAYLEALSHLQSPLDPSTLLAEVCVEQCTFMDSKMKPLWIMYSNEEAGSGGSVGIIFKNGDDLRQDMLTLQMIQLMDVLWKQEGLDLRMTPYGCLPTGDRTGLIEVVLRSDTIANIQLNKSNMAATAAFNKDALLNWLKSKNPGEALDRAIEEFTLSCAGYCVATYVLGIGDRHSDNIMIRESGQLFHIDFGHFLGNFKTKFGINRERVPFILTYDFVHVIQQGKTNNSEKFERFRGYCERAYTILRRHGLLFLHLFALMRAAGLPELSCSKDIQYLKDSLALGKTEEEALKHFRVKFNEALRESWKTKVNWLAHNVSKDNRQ
# Sequence (P27986 whole entry partner): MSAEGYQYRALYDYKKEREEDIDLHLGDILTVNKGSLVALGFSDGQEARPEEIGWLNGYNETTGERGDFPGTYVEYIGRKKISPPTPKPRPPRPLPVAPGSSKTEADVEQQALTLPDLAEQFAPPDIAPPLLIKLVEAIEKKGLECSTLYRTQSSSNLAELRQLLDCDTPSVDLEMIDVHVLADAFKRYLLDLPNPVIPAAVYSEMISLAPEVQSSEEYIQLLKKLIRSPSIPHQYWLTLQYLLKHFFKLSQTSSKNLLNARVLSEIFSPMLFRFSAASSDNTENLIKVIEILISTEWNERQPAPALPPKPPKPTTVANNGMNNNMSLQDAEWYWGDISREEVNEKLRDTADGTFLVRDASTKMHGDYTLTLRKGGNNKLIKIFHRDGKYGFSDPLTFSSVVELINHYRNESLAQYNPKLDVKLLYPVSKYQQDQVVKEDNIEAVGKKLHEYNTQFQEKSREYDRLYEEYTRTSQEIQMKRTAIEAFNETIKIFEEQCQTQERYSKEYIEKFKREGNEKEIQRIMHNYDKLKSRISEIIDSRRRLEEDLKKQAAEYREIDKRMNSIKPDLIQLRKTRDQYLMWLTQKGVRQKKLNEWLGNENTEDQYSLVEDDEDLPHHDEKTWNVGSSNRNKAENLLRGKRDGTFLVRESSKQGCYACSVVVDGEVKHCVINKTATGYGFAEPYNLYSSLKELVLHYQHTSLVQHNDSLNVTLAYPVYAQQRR
# experimental details: PI3Kδ kinase ADP-Glo assay (Reaction Biology Corporation)
# experimental setup: read-out: PI3Kδ IC50
pIC50: −log10 of the molar value.

INSERT INTO measurements (chemical_string, target, endpoint_value) VALUES
  ('CC(C)N1CCOc2c(F)cc(-c3nc(Nc4cc5n(n4)CCN(C)C5)ncc3F)cc21', 'PI3Kδ kinase (Homo sapiens (Human))', '< 4.30');

Alright, here's another compound for you.
Recorded pIC50 of CC(C)N1CCOc2c(F)cc(-c3nc(Nc4ccc(C5CCN(C(=O)N(C)C)CC5)cn4)ncc3F)cc21 , please.
< 4.30

====

# target: FMS kinase (Homo sapiens (Human), UniProt P07333)
# Sequence (P07333 20-972): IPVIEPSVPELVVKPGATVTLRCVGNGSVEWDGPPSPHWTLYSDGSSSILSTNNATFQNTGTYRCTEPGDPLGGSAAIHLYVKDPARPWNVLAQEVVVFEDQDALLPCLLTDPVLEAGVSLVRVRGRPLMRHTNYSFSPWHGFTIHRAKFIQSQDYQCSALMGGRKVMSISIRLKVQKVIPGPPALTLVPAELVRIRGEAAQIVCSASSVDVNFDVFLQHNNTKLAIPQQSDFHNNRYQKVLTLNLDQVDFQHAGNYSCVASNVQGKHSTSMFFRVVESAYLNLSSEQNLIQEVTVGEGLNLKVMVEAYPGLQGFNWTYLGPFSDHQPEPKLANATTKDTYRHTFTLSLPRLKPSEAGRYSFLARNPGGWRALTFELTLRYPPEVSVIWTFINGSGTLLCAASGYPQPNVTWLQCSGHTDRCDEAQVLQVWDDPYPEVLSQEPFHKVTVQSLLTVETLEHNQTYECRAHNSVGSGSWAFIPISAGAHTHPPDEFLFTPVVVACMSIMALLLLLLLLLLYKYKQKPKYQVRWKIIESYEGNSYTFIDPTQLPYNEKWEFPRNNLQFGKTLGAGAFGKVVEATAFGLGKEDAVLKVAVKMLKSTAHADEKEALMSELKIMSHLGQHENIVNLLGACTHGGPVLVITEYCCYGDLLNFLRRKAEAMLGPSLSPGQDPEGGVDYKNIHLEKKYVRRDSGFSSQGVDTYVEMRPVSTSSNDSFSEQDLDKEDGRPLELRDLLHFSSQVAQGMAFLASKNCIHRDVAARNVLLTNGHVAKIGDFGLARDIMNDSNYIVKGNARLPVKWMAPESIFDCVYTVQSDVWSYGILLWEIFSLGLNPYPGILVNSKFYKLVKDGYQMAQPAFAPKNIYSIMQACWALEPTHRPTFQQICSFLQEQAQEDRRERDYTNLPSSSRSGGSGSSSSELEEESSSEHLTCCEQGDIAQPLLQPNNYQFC
metric: IC50 (nM)
Unit nM implied. Number only.

INSERT INTO assay_data (compound, endpoint_value) VALUES
  ('CCN1CCN(Cc2ccc(Nc3ncc(F)c(-c4cc(F)c5c(c4)N(C(C)C)CCO5)n3)nc2)CC1 [Compound 4]', 566),
  ('CC(C)N1CCOc2c(Cl)cc(-c3nc(Nc4ccc(N5CCNCC5)c(F)c4)ncc3Cl)cc21 [Compound 52]', 14),
  ('CC(C)N1CCOc2c(F)cc(-c3nc(Nc4ccc5c(c4)CNCC5)ncc3F)cc21 [Compound 16]', 2.5);

Recorded IC50 of COc1cc(Nc2ncc(F)c(-c3cc(F)c4c(c3)N(C(C)C)CCO4)n2)ccc1N1CCNCC1 [Compound 29] , please.
2.5

And the next one, CC(C)N1CCc2cc(Nc3ncc(F)c(-c4cc(F)c5c(c4)N(C(C)C)CCO5)n3)ccc2C1 [Compound 22] ?
6.5

And the next one, CC(C)N1CCOc2c(F)cc(-c3nc(Nc4cnn(C5CCC(O)CC5)c4)ncc3F)cc21 (centres unmarked) [Compound 452] ?
8

====

Entries and their measured IC50 follow.
# target: CDK6 (Homo sapiens (Human))
# experimental details: biochemical
# Assay type: biochemical
Unit nM implied. Number only.

Recorded results for 2 molecules are shown here.
INSERT INTO measurements (molecule, metric, endpoint_value) VALUES
  ('CC(C)N1CCOc2c(F)cc(-c3nc(Nc4ccc(C(=O)N5CCC(O)CC5)c(F)c4)ncc3F)cc21 [Compound 458]', 'IC50', 10),
  ('CC(C)CN1CCOc2c(F)cc(-c3nc(Nc4ccc(N5CCC(N(C)C)CC5)c(F)c4)ncc3F)cc21 [Compound 480]', 'IC50', 14);

Recorded IC50 of COCCN1CCN(Cc2ccc(Nc3ncc(F)c(-c4cc(F)c5c(c4)N(C(C)C)CCO5)n3)nc2)CC1 [Compound 524] , please.
7.5

====

# target: UniProtKB P07333
pIC50: −log10 of the molar value.
Lab note: compare pIC50 against 7. Equal or greater, write yes (1). Smaller, write no (0).

Solved entries:
INSERT INTO results (compound, qualitative_label) VALUES
  ('CC(C)N1CCOc2c(F)cc(-c3nc(Nc4ccc(N5CCN(C(=O)N(C)C)CC5)cn4)ncc3F)cc21 [Compound 453]', 'no (0)'),
  ('CC(C)N1CCc2c(cccc2Nc2ncc(F)c(-c3cc(F)c4c(c3)N(C(C)C)CCO4)n2)C1 [Compound 20]', 'yes (1)'),
  ('OC1CCN(c2ccc(Nc3ncc(F)c(-c4cc(F)c5c(c4)N(C4CCC4)CCO5)n3)nc2)CC1 [Compound 486]', 'no (0)'),
  ('CC(C)CN1CCOc2c(F)cc(-c3nc(Nc4ccc5c(n4)CCNC5)ncc3F)cc21 [Compound 483]', 'no (0)'),
  ('Fc1cnc(Nc2ccc(N3CCCNCC3)cn2)nc1-c1cc(F)c2c(c1)N(C1CCCC1)CCO2 [Compound 478]', 'no (0)'),
  ('CC(C)N1CCOc2c(F)cc(-c3nc(Nc4cc(F)c(N5CCNCC5)cc4F)ncc3F)cc21 [Compound 31]', 'yes (1)'),
  ('CC(C)N1CCOc2c(F)cc(-c3nc(Nc4ccc(C5CCNCC5)c(F)c4)ncc3F)cc21 [Compound 18]', 'yes (1)'),
  ('CC(C)N1CCOc2c(F)cc(-c3nc(Nc4ccc(N5CCC(N(C)C)CC5)cn4)ncc3F)cc21 [Compound 436]', 'no (0)');

Check the entry CC(C)N1CCOc2c(F)cc(-c3nc(Nc4ccc(N5CCNCC5)cc4F)ncc3F)cc21 [Compound 11] : does pIC50 equal or exceed 7?
no (0)

And the next one, CC(C)CN1CCOc2c(F)cc(-c3nc(Nc4ccc(C5CCN(C)CC5)cn4)ncc3F)cc21 [Compound 479] ?
no (0)

And the next one, CC(C)N1CCOc2c(F)cc(-c3nc(Nc4cccc5c4CCNC5)ncc3F)cc21 [Compound 15] ?
yes (1)

====

# target: CDK4 (Homo sapiens (Human), UniProt P11802)
# Sequence (P11802 whole entry): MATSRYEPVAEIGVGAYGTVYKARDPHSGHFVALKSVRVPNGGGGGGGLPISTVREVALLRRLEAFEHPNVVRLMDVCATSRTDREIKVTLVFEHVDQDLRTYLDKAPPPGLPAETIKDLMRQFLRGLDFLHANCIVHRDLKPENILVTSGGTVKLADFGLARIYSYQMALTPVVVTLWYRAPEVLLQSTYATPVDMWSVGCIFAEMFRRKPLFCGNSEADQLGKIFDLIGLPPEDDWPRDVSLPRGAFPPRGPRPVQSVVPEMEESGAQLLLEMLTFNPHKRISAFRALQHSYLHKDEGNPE
# Sequence (P24385 whole entry partner): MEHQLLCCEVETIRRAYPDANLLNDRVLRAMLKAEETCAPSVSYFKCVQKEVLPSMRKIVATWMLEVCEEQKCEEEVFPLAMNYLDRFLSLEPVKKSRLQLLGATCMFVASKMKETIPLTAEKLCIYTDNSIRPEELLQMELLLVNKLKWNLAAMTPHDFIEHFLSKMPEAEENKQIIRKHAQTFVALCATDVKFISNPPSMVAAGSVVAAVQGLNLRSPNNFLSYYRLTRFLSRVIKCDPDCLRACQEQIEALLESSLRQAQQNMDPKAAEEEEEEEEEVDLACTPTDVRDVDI
# experimental details: In vitro kinase inhibition, luminescence (ADP-Glo) with retinoblastoma substrate
# Format: biochemical
Counter-ions that a name gives are not always drawn.
Entries and their measured IC50 follow.
Unit nM implied. Number only.

Recorded results for 5 compounds are shown here.
INSERT INTO measurements (compound, endpoint_value) VALUES
  ('CC(C)N1CCOc2c(F)cc(-c3nc(Nc4ccc(C(=O)N5CCC(O)CC5)c(F)c4)ncc3F)cc21', 0.5),
  ('CC(C)CN1CCOc2c(F)cc(-c3nc(Nc4ccc(C5CCN(C)CC5)c(F)c4)ncc3F)cc21', 4),
  ('CC(C)N1CCOc2c(F)cc(-c3nc(Nc4ccc(N5CCC(CN)CC5)cn4)ncc3F)cc21', 4),
  ('CC(C)CN1CCOc2c(F)cc(-c3nc(Nc4ccc(N5CCOCC5)cn4)ncc3F)cc21', 90),
  ('CC(C)CN1CCOc2c(F)cc(-c3nc(Nc4ccc5c(n4)CCNC5)ncc3F)cc21', 25);

Recorded IC50 of CN1CCOc2c(F)cc(-c3nc(Nc4ccc(N5CCNCC5)c(F)c4)ncc3F)cc21 , please.
3

And the next one, CC(C)N1CCOc2c(F)cc(-c3nc(Nc4ccc(N5CCC(O)CC5)cn4)ncc3F)cc21 ?
1.1

And the next one, CCN1CCC(c2ccc(Nc3ncc(F)c(-c4cc(F)c5c(c4)N(C(C)C)CCO5)n3)nc2)CC1 ?
2

And the next one, CC(C)N1CCOc2c(F)cc(-c3nc(Nc4ccc(N5CCC(N)CC5)cn4)ncc3F)cc21 ?
2

And the next one, CC(C)N1CCOc2c(F)cc(-c3nc(Nc4ccc(N5CCN(C(=O)N(C)C)CC5)cn4)ncc3F)cc21 ?
12

And the next one, CCN1CCOc2c(F)cc(-c3nc(Nc4ccc(N5CCNCC5)c(F)c4)ncc3F)cc21 ?
2.5

And the next one, CC(C)N1CCOc2c(F)cc(-c3nc(Nc4ccc(N5CCNCC5)cn4)ncc3F)cc21 ?
0.2

And the next one, CC(C)N1CCOc2c(F)cc(-c3nc(Nc4ccc(C(=O)N5CCC(O)CC5)cn4)ncc3F)cc21 ?
13

And the next one, COC1CCN(c2ccc(Nc3ncc(F)c(-c4cc(F)c5c(c4)N(C(C)C)CCO5)n3)nc2)CC1 [Compound 843, hydrochloride] ?
65

And the next one, CC(C)N1CCOc2c(F)cc(-c3nc(Nc4ccc(N5CCN(C(=O)CN(C)C)CC5)c(F)c4)ncc3F)cc21 ?
1.1

And the next one, CC(C)CN1CCOc2c(F)cc(-c3nc(Nc4ccc(N5CCC(O)CC5)cn4)ncc3F)cc21 ?
101

====

Consider the following pIC50 values measured on CDK4 (Homo sapiens (Human), UniProt P11802).
Notebook: values listed as pIC50 are -log10 of the concentration (mol/L).

INSERT INTO results (compound, target, endpoint_value) VALUES
  ('CCN1CCN(C(=O)c2ccc(Nc3ncc(F)c(-c4cc(F)c5c(c4)N(C(C)C)CCO5)n3)cc2F)CC1', 'CDK4 (Homo sapiens (Human), UniProt P11802)', 8.07),
  ('OC1CCN(c2ccc(Nc3ncc(F)c(-c4cc(F)c5c(c4)N(C4CCC4)CCO5)n3)nc2)CC1', 'CDK4 (Homo sapiens (Human), UniProt P11802)', 7.80),
  ('CC1CN(C(C)C)c2cc(-c3nc(Nc4ccc(N5CCNCC5)c(F)c4)ncc3F)cc(F)c2O1 (centres unmarked)', 'CDK4 (Homo sapiens (Human), UniProt P11802)', 7.92);

Recorded pIC50 of CC(C)CN1CCOc2c(F)cc(-c3nc(Nc4ccc(C5CCN(C)CC5)cn4)ncc3F)cc21 , please.
8.60

And the next one, CC(C)N1CCOc2c(F)cc(-c3nc(Nc4ccc(C5CCN(C(=O)CN(C)C)CC5)cn4)ncc3F)cc21 ?
9.30

And the next one, Fc1cnc(Nc2ccc(N3CCOCC3)cn2)nc1-c1cc(F)c2c(c1)N(C1CCC1)CCO2 ?
7.26

And the next one, CC(C)N1CCOc2c(F)cc(-c3nc(Nc4ccc(C5CCNCC5)c(C(F)(F)F)c4)ncc3F)cc21 ?
7.39
